// data source = ChEMBL document CHEMBL1137675

- System: Penicillium sp.
- EXPERIMENT: Antifungal activity against Penicillium sp. at 28 degC after 72 hrs; further: test concentration or dose not given here
- Type: functional
Overview of reported diameter of the inhibition zone (DIZ) across a group of compounds:
Provide the reading as a plain figure in mm.

As a guide, the following entries are already answered.
{"SUBSTANCE_SMILES": "C=CCCCCCCCCc1nc2c([nH]1)CCCC2", "EXPERIMENTAL_TARGET": "Penicillium sp.", "READOUT_NUMBER": 18}
{"SUBSTANCE_SMILES": "CCCCCC[C@@H](O)C/C=C\\CCCCCCCc1ncc[nH]1", "EXPERIMENTAL_TARGET": "Penicillium sp.", "READOUT_NUMBER": 18}

Consider the record given below.
// fetch Penicillium sp. diameter of the inhibition zone (DIZ) for `CCCCCCCC/C=C/CCCCCCCc1ncc[nH]1` 17

---

The entries below come with measured diameter of the inhibition zone (DIZ) values attached.
- System: Escherichia coli
- EXPERIMENT: Antibacterial activity against Escherichia coli K-12 at 37 degC after 24 hrs by filter paper disk method
- Assay type: functional
Give just the number in mm; leave the unit off.

Please review the entries below; each comes with its answer.
{"SUBSTANCE_SMILES": "CCCCC/C=C\\CC[C@H](O)CCCCCCCc1nc2cc(Cl)ccc2[nH]1", "diameter of the inhibition zone (DIZ) [mm]": 19}
{"SUBSTANCE_SMILES": "C=CCCCCCCCCc1nc2cc([N+](=O)[O-])ccc2[nH]1", "diameter of the inhibition zone (DIZ) [mm]": 20}
{"SUBSTANCE_SMILES": "CCCCCCCC/C=C/CCCCCCCc1nc2cc([N+](=O)[O-])ccc2[nH]1", "diameter of the inhibition zone (DIZ) [mm]": 20}

Which diameter of the inhibition zone (DIZ) value is on record for `CCCCCC[C@@H](O)C/C=C\CCCCCCCc1nc2cc([N+](=O)[O-])ccc2[nH]1` ? 16

Please report the recorded diameter of the inhibition zone (DIZ) for `CCCCCCCC/C=C/CCCCCCCc1nc2cc(Cl)ccc2[nH]1` . 18

Bench note: what diameter of the inhibition zone (DIZ) did `CCCCC/C=C\CC[C@H](O)CCCCCCCc1nc2cc([N+](=O)[O-])ccc2[nH]1` show? 18

Need diameter of the inhibition zone (DIZ) of `CCCCCC[C@@H](O)C/C=C\CCCCCCCc1nc2c([nH]1)CCCC2` , thanks. 15

Need diameter of the inhibition zone (DIZ) of `CCCCC/C=C\CC[C@H](O)CCCCCCCc1ncc[nH]1` , thanks. 12

Need diameter of the inhibition zone (DIZ) of `CCCCCC[C@@H](O)C/C=C\CCCCCCCc1ncc[nH]1` , thanks. 12

Any idea what diameter of the inhibition zone (DIZ) was measured for `C=CCCCCCCCCc1nc2cc(Cl)ccc2[nH]1` ? 20

---

Catalogue of diameter of the inhibition zone (DIZ) values
- Tested on: Trichoderma viride
- EXPERIMENT: Antifungal activity against Trichoderma viride at 28 degC after 72 hrs
- Assay type: functional
Output should be the measured figure followed by the unit it is expressed in.

{"SUBSTANCE_SMILES": "CCCCC/C=C\\CC[C@H](O)CCCCCCCc1nc2ccccc2[nH]1", "MEASURED_ATTRIBUTE": "diameter of the inhibition zone (DIZ)", "RESULT": "8 mm"}
{"SUBSTANCE_SMILES": "CCCCCCCC/C=C/CCCCCCCc1nc2c([nH]1)CCCC2", "MEASURED_ATTRIBUTE": "diameter of the inhibition zone (DIZ)", "RESULT": "6 mm"}
{"SUBSTANCE_SMILES": "C=CCCCCCCCCc1nc2ccccc2[nH]1", "MEASURED_ATTRIBUTE": "diameter of the inhibition zone (DIZ)", "RESULT": "7 mm"}
{"SUBSTANCE_SMILES": "C=CCCCCCCCCc1nc2c([nH]1)CCCC2", "MEASURED_ATTRIBUTE": "diameter of the inhibition zone (DIZ)", "RESULT": "7 mm"}

Param readout = diameter of the inhibition zone (DIZ); param system = Trichoderma viride; param query = `CCCCCCCC/C=C/CCCCCCCc1nc2cc(Cl)ccc2[nH]1` ; response: value 9 mm

Record lookup: for Trichoderma viride, what diameter of the inhibition zone (DIZ) belongs to `CCCCCC[C@@H](O)C/C=C\CCCCCCCc1nc2ccccc2[nH]1` ? 8 mm

Reported diameter of the inhibition zone (DIZ) for Trichoderma viride, given `CCCCC/C=C\CC[C@H](O)CCCCCCCc1nc2cc([N+](=O)[O-])ccc2[nH]1` ? 9 mm

Any idea what diameter of the inhibition zone (DIZ) came out for `CCCCC/C=C\CC[C@H](O)CCCCCCCc1nc2c([nH]1)CCCC2` on Trichoderma viride? 8 mm

Item: `CCCCCCCC/C=C/CCCCCCCc1ncc[nH]1` Test system: Trichoderma viride Read-out: diameter of the inhibition zone (DIZ) Value: ? 4 mm
